test: BSK_CASM3C_SRB: Viability Assessment in the BioMAP Diversity Plus: CASM3C Assay (AID 2283050); conditions: primary human coronary artery smooth muscle cells;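 note: total protein by SRB staining as cytotoxicity measure in parallel cultures; cells exposed to compound for 24 h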
Active and inactive are the calls of the source. Rule for the calls: active = hit-call score of the fitted dose curve at least 0.9, where 1 is the maximum; inactive = score below 0.9.
Valid outcomes are listed here; reply with one: Yes = active, No = inactive

compound	qualitative.label
CC(C)CCCCCOC(=O)CS	No

Problem: Could you kindly confirm the outcome this assay logged for C=CC(=O)OCC(C)OCC(C)OCC(C)OC(=O)C=C (configuration not stated) ?
Solution: Yes

Problem: Could you kindly confirm the outcome this assay logged for `O=C1CCCCCCCCCCC1` ?
Solution: No

Problem: Could you kindly confirm the outcome this assay logged for `C[N+](C)(C)CCCNS(=O)(=O)C(F)(F)C(F)(F)C(F)(F)C(F)(F)C(F)(F)C(F)(F)C(F)(F)C(F)(F)F` ?
Solution: No

Problem: Could you kindly confirm the outcome this assay logged for `Oc1c(Cl)cc(Cl)c(Cl)c1Cl` ?
Solution: No

Problem: Could you kindly confirm the outcome this assay logged for `CCCCC1C(=O)N(c2ccccc2)N(c2ccccc2)C1=O` ?
Solution: No

Problem: Could you kindly confirm the outcome this assay logged for `CC=C(C)C=CC=C(C)C` ?
Solution: No
